The measured values listed here are drawn from PubChem BioAssay (NCI).

System: SW-620 colon
Assay explanation: NCI tumour cell line growth inhibition, 48 h
Reported TGI is given for each of the following molecules.

Worked examples follow.
>  <Molecule>
CC(=O)N[C@@H](Cc1ccc(O)cn1)C(=O)NC1CCCCC1

>  <TGI>
> 100 µM

$$$$
>  <Molecule>
O=CC1=CCC2c3[nH]c4ccccc4c3CCN2C1 (stereo not drawn)

>  <TGI>
> 396 µM

$$$$

Tested on SW-620 colon, the item c1ccc(Nc2nnc(CCCCCCCCc3nnc(Nc4ccccc4)o3)o2)cc1 showed TGI equal to > 100 µM

Tested on SW-620 colon, the item [Cl-].[Gd+3].[O-]/N=C(\c1ccccc1)c1ccccn1.[O-]/N=C(\c1ccccc1)c1ccccn1.[O-]/N=C(\c1ccccc1)c1ccccn1 showed TGI equal to > 100 µM

Tested on SW-620 colon, the item COC(=O)C(=O)C(C(=O)C(=O)Nc1ccc(C)c(C)c1)c1nc2ccc([N+](=O)[O-])cc2[nH]c1=O (stereo not drawn) showed TGI equal to > 100 µM

Tested on SW-620 colon, the item OCC#Cc1ccccc1C#Cc1ccc(C#Cc2ccccc2)cc1 showed TGI equal to 44.4 µM

Tested on SW-620 colon, the item COc1ccc(/C=C\c2cc(OC)c(OC)c(OC)c2)c(NS(=O)(=O)c2ccc(C(C)(C)C)cc2)c1O showed TGI equal to 23.5 µM

Tested on SW-620 colon, the item Cc1ccccc1Nc1nc2ccccc2nc1NS(=O)(=O)c1ccccc1 showed TGI equal to > 100 µM
